Documented pIC50 across a set of binders
biological target: T1, Platelet glycoprotein IIb/IIIa (human, UniProt P08514 32-1039; P05106 27-788); assay: competition, ELISA or liposome assay
T1 construct: mature; on human platelets in the aggregation assays (functional rows); also called GP IIb/IIIa; GPIIbIIIa
pIC50: −log10 of the molar value. Starred links: 1 amine or outer side, 2 acyl side, 3 side chain; linkers in the order of their positions; H or OH if unused. Positions of bridges follow the written chain, without caps; N, C: chain ends. Non-standard residues stand in square brackets, D forms with d. No end group written: not given here. Tyr(OMe) = O-methyl-tyrosine (O-Me-Tyr, Y-OMe), COc1ccc(C[C@H](N[*:1])C(=O)[*:2])cc1; t‑but‑am‑Pmp = tert-butyl-substituted beta,beta-pentamethylenecysteine; Cys(β,β-pentamethylene) = O=C([C@@H](N[*:1])C1(S[*:3])CCCCC1)[*:2]
MEASUREMENT_TYPE: pIC50

1) R[t‑but‑am‑Pmp]GHRGDLRCR (disulfide 2-10; not fully specified; printed as R(t-but-am-Pmp)GHRGDLRCR-2; also: second HPLC peak, configuration not assigned) [R(t-but-am-Pmp)GHRGDLRCR-2]	7.22
2) R[Cys(β,β-pentamethylene)]GHRGDLRCR (disulfide 2-10; not fully specified; printed as R(am-Pmp)GHRGDLRCR-1) [R(am-Pmp)GHRGDLRCR-1]	6.40
3) Ac-[Cys(β,β-pentamethylene)]GHRGD[Tyr(OMe)]RC-NH2 (disulfide 1-9; SMILES COc1ccc(C[C@@H]2NC(=O)[C@H](CC(=O)O)NC(=O)CNC(=O)[C@H](CCCNC(=N)N)NC(=O)[C@H](Cc3c[nH]cn3)NC(=O)CNC(=O)[C@@H](NC(C)=O)C3(CCCCC3)SSC[C@@H](C(N)=O)NC(=O)[C@H](CCCNC(=N)N)NC2=O)cc1) [Ac(Pmc)GHRGD(O-Me-Tyr)RC-NH2]	6.40
